System: 521955-158-R7-J2-PDC spheroids, viability % test/control
METHOD: Anticancer human tumor 521955-158-R7-J2-PDC patient-derived pancreatic carcinoma cell line growth inhibition [TAK]
PROTOCOL CONDITIONS: second compound 9.49 µM; first compound 0.000316 µM; stronger effect = lower value; spheroids with HUVEC and MSC
MEASUREMENT TYPE: viability, T/C (%)
Response body: numeric value in %, unit text excluded.

Bench note: what viability, T/C did CC(C)n1nc(-c2ccc3oc(N)nc3c2)c2c(N)ncnc21 + CC(C)NCC(C(=O)N1CCN(c2ncnc3c2C(C)CC3O)CC1)c1ccc(Cl)cc1 show?
89.9

One more compound: COC1CC2CCC(C)C(O)(O2)C(=O)C(=O)N2CCCCC2C(=O)OC(C(C)CC2CCC(OCCO)C(OC)C2)CC(=O)C(C)C=C(C)C(O)C(OC)C(=O)C(C)CC(C)C=CC=CC=C1C (centres undefined) + CC(C)NCC(C(=O)N1CCN(c2ncnc3c2C(C)CC3O)CC1)c1ccc(Cl)cc1
86.2

One more compound: CC(C)CC(NC(=O)CNC(=O)c1cc(Cl)ccc1Cl)B1OC(=O)CC(CC(=O)O)(C(=O)O)O1 (centres undefined) + CC(C)NCC(C(=O)N1CCN(c2ncnc3c2C(C)CC3O)CC1)c1ccc(Cl)cc1
116

One more compound: CC(C)CC(NC(=O)C(Cc1ccccc1)NC(=O)c1cnccn1)B(O)O (centres undefined) + CC(C)NCC(C(=O)N1CCN(c2ncnc3c2C(C)CC3O)CC1)c1ccc(Cl)cc1
68.7

---

System: 521955-158-R7-J2-PDC spheroids, viability % test/control
METHOD: Anticancer human tumor 521955-158-R7-J2-PDC cell line growth inhibition [TAK];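 note: spheroids exposed to compound for 7 days before readout; 100% = DMSO vehicle control wells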
PROTOCOL CONDITIONS: second compound 3 µM; first compound 0.00316 µM; stronger effect = lower value; spheroids with HUVEC and MSC
For each of the compounds below, state its viability, T/C.
Response body: numeric value in %, unit text excluded.

Bench note: what viability, T/C did CC(C)CC(NC(=O)CNC(=O)c1cc(Cl)ccc1Cl)B1OC(=O)CC(CC(=O)O)(C(=O)O)O1 (stereo not given) + CC(C)NCC(C(=O)N1CCN(c2ncnc3c2C(C)CC3O)CC1)c1ccc(Cl)cc1 show?
109

One more compound: CC(C)n1nc(-c2ccc3oc(N)nc3c2)c2c(N)ncnc21 + CC(C)NCC(C(=O)N1CCN(c2ncnc3c2C(C)CC3O)CC1)c1ccc(Cl)cc1
86.8

One more compound: COC1CC2CCC(C)C(O)(O2)C(=O)C(=O)N2CCCCC2C(=O)OC(C(C)CC2CCC(OCCO)C(OC)C2)CC(=O)C(C)C=C(C)C(O)C(OC)C(=O)C(C)CC(C)C=CC=CC=C1C (stereo not given) + CC(C)NCC(C(=O)N1CCN(c2ncnc3c2C(C)CC3O)CC1)c1ccc(Cl)cc1
74.7

One more compound: CC(C)CC(NC(=O)C(Cc1ccccc1)NC(=O)c1cnccn1)B(O)O (stereo not given) + CC(C)NCC(C(=O)N1CCN(c2ncnc3c2C(C)CC3O)CC1)c1ccc(Cl)cc1
93.1

One more compound: COc1c(OCCCN2CCOCC2)ccc2c3n(c(=NC(=O)c4cnc(N)nc4)nc12)CCN3 + CC(C)NCC(C(=O)N1CCN(c2ncnc3c2C(C)CC3O)CC1)c1ccc(Cl)cc1
55
